experiment: viability gain of MRP-1-high H69AR cells under doxorubicin, pilot screen, MRP-1 activator project, CellTiter-Glo, duplicate (AID 807); details: H69AR viability with doxorubicin, CellTiter-Glo luminescence; at 10 µM; hits give high values;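 also: compound pretreatment 18-22 h then 72 h combined with doxorubicin; 0% = doxorubicin alone and 100% = vehicle without doxorubicin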
Calls of active or inactive are those of the source.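 The calls were made as follows: active = viability increase at or above a cutoff of the median across tested compounds plus 3 SD (cut at about 8.5% in these data, passing the limit was not always enough); inconclusive = some gains above the cutoff, reason not given; inactive = the rest.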
Listing of entries alongside the reported viability increase.

O=C(COc1ccccc1)Nc1nnc(-c2ccc(Cl)s2)o1: -1.36% (inactive)
COc1ccc2nc(NC(=O)c3ccc4ncsc4c3)sc2c1: -3.84% (inactive)
O=S(=O)(Nc1ccc(O)cc1)c1cccc2cccnc12: -1.95% (inactive)
CC(C)Sc1nc2c(c(=O)n1C)SC(C)C2 (stereo unspecified): -1.28% (inactive)
CCOC(=O)C1=C(O)/C(=C/N(C)C)N=C1C: -0.31% (inactive)

Please turn your attention to the following entry.
The compound identified as "CCN1CCN(c2ncnc3c2sc(=S)n3-c2ccccc2)CC1" registered its viability increase at -3.4% (inactive)
